- Assay text: Odor detection threshold (ODT)
- Parameters: unit not given here
- Condition info: Table 15
Value kind: odt

Examples with their reported odt follow.
Compound	odt
CCCCCCCCCCC=CC#N	6.7
CCCCCCCCCC=O	6.7
CCCCCCCC=O	4.6

Notebook: CCC=C(C)C(O)CCCCC (stereo not shown) , odt read as 26

----------
- Assay text: Odor detection threshold (ODT)
- Set-up: unit not given here
- Condition info: Table 17
Value kind: odt
Respond numerically, and do not add a unit to the figure.

Compound	odt
CCCCCCC#CC(=O)OC [METHYL OCTINE CARBONATE]	9.7
CCCCCCCC=O	4.6
CCC=C(C)C(O)CCCCC (stereo not shown)	26

Consider the record given below.
Notebook: C=CC(C)(O)CCC=C(C)CC (mixture of isomers) , odt read as 120
